- assay-comment: COS7 lysate on small-molecule microarray, probe aHis, 635 nm (AID 1123);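 also: z-score combines 667nm fluorescence intensity with signal-to-noise per printed compound spot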
- conditions-used: COS7 cell lysate, fluorescence, higher = more signal
reported-endpoint: composite z-score
Give only the figure.

Sample NC(=O)N1C(=O)C2C(C1=O)C1C=C(CCCO)C2C(C2CC2)N1Cc1cccc(OC(F)(F)F)c1 (stereo not given) — what was its composite z-score?
0.518

Another compound to look at: COC(=O)[C@@]1(Cc2ccccc2CN=[N+]=[N-])N=C(c2ccc(OCCCO)cc2)O[C@H]1c1ccccc1
2.52

Would you kindly repeat that for [N-]=[N+]=NC[C@H](Cc1ccccc1)NC(=O)c1ccccc1 ?
0.12

Please do the same for CC(C)=CCCC(C)=CC(O)C1C=CC2C(=O)N(c3ccccc3)C(=O)C2N1Nc1ccccc1F (stereo not given) as well.
1.3

---
What value of measured composite z-score is listed for CN(C)CCCCNC(=O)[C@H]1C[C@H]2C(=O)N[C@@H](CCCC[N+](C)(C)C)C(=O)N2[C@H]1c1ccc(O)cc1 ?
-0.287

# repeat for C=C[C@H](C)[C@H](OC(=O)Nc1ccc(OC)cc1)c1ccc(OCCO)cc1
0.718

Then this compound: C=C(COC)/C(=C/C[C@@H](OC(=O)c1ccncc1)c1ccccc1OCCO)c1cc(C(=O)OC)ccc1OC
0.107

Also, COc1cc2c(cc1OC)CN(C(=O)[C@@H]1[C@H]3C(=O)O[C@H](c4ccccc4)[C@H](c4ccccc4)N3[C@H](c3ccc(O)cc3)[C@@]13C(=O)Nc1ccc(C#CCCO)cc13)CC2 please.
1.08

Same lookup for Cc1ccc(S[C@]2(C(=O)NC(C)C)CC(=O)N(C(C)C)[C@@H]2c2ccc(CO)cc2I)cc1 , please.
1.32

Ok, now C=CCNC(=O)[C@@H]1[C@H]2C(=O)O[C@H](c3ccccc3)[C@H](c3ccccc3)N2[C@H](c2ccc(O)cc2)[C@@]12C(=O)Nc1ccc(C#CCC(C(=O)OC)C(=O)OC)cc12
1.52

Please give the result for COC(=O)[C@@]1(Cc2ccc(F)cc2)[C@H]2c3cc(C(=O)N4CCCC4)n(CC4CC4)c3C[C@H]2CN1C(=O)c1ccccc1 too.
2.99

What about this compound? CCOC(=O)C1=C[C@@H](C(C)(C)C)N(S(=O)(=O)c2ccc(C)cc2)[C@H]1c1ccccc1
0.29

# iterate: COC(=O)C(CC#Cc1ccc2c(c1)[C@]1(C(=O)N2)[C@H](C(=O)Nc2nc3ccccc3s2)[C@H]2C(=O)O[C@H](c3ccccc3)[C@H](c3ccccc3)N2[C@@H]1c1ccc(OCCO)cc1)C(=O)OC
2.29

Also need CC1(C)C(=O)C(c2ccccc2)=C2CN3C(=O)N(CCc4ccccc4)C(=O)C3(Cc3ccc(F)cc3)C=C21 (stereo not given) , thanks.
1.39

And COC(=O)[C@@]1(Cc2ccccc2)[C@H]2c3cc(C(=O)N(C)C)n(CCn4cc([N+](=O)[O-])nc4C)c3C[C@H]2CN1C(=O)c1ccccc1 ?
2.56

// query: COC(=O)[C@@]1(Cc2ccc(OC)cc2)[C@H]2c3cc(C(=O)N4CCCC4)n(Cc4ccc(OC(F)(F)F)cc4)c3C[C@H]2CN1C(=O)c1ccccc1
-0.0543

How about this compound: O=C1C[C@@](C(=O)NCc2ccccc2)(c2ccc([N+](=O)[O-])cc2)[C@@H](c2ccc(CO)cc2I)N1CC12CC3CC(CC(C3)C1)C2
2.25

Field entry: CC(C)C(CO)N1C(=O)[C@@H]2[C@H]3C(=O)OCC=C[C@H]3OC23C=CCN(C(C)(C)C)C(=O)[C@@H]13 (stereo not given in full)
-0.843

Then Cc1cccc([C@H]2C[C@H]3C(Br)=C[C@@H]2C(=O)[C@]32CO2)c1 ?
-0.498

Please give the result for [N-]=[N+]=Nc1ccccc1C[C@]1(C(=O)NCc2ccccc2)COC(c2ccc(OCCCO)cc2)=N1 too.
2.52

Now try C=C[C@@H](C)[C@@H](OC(=O)Nc1ccc(SC)cc1)c1ccc(OCCO)cc1 .
1.07

Now the same for CCCNC(=O)[C@@]1(Sc2ccc(C)cc2)CC(=O)N(C2CCCCC2)[C@@H]1c1ccc(CO)cc1I
1.47

Record: COc1ccc([Si](C)(C)[C@@H]2[C@@H](CC(=O)N3Cc4ccccc4C[C@H]3CO)O[C@]3(C(=O)N(Cc4ccc(N5CCC5=O)cc4)c4ccccc43)[C@H]2C)cc1
1.14

How about Cc1ccccc1C(O)C1C=CC2C(=O)NC(=O)C2N1Nc1ccc(Cl)cc1Cl (stereo not given) ?
2.4

Repeat for the following compound: O=c1cccc(-c2ccco2)o1
0.193

----------
- assayed-target: Homeobox protein Hox-A13 (Mus musculus) (UniProt Q62424)
- Sequence (Q62424 whole entry, looked up): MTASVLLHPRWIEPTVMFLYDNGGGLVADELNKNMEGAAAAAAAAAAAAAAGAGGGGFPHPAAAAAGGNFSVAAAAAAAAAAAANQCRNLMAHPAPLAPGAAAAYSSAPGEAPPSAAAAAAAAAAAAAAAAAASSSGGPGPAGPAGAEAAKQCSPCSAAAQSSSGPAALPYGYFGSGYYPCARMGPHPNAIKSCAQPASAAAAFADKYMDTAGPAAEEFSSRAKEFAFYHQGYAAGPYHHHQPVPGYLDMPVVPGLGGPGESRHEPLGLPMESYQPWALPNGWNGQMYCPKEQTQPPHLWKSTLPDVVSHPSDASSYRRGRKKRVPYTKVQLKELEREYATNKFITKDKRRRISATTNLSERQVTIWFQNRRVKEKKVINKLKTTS
- assay-comment: inhibitors of HoxA13-DNA binding, primary screen, biochemical, fluorescence polarization, labeled oligonucleotide (AID 1185)
- conditions-used: 15 min, higher = more signal, called active from +8 up or from −8 down
Measured z-score of individual entries
Lab note: jot the number down without any unit.

Would you kindly share the measured z-score for COc1ccc([Si](C)(C)[C@@H]2[C@@H](CC(=O)N3Cc4ccccc4C[C@H]3CO)O[C@]3(C(=O)N(Cc4ccc(N5CCC5=O)cc4)c4ccccc43)[C@H]2C)cc1 ?
-0.855

Please do the same for COC(=O)[C@@]1(Cc2ccc(F)cc2)[C@H]2c3cc(C(=O)N(C)C)n(Cc4c(CO)[nH]cc(C)c4=O)c3C[C@H]2CN1C(=O)c1ccccc1 as well.
-5.02

Quick one: CCCCNC(=O)c1ccc(C#C[Si](C(C)C)(C(C)C)C(C)C)c(OC(C)=O)c1
-2.16

Can you check CCOC(=O)C1=C[C@@H](C(C)(C)C)N(S(=O)(=O)c2ccc(C)cc2)[C@H]1c1cccc(Cl)c1 next?
0.0204

Continuing:
Endpoint output: z-score of COC(=O)[C@@]1(Cc2ccc(F)cc2)[C@H]2c3cc(C(=O)N4CCCC4)n(CC4CC4)c3C[C@H]2CN1C(=O)c1ccccc1 . Value?
-4.69

Queued: C=CCC(OC(C)=O)[C@@H]1[C@@H](N(Cc2ccc(-c3cccc(C(F)(F)F)c3)o2)C(=O)c2cccc3ccccc23)c2cc(OCCCO)ccc2N1C(=O)Cc1ccc(OC)cc1 (some centres not stated)
-1.92

Consider next the compound C=CCNC(=O)[C@H]1[C@@H]2C(=O)O[C@@H](c3ccccc3)[C@@H](c3ccccc3)N2[C@@H](c2ccc(OCCO)cc2)[C@]12C(=O)N(C(=O)OCCOC)c1ccc(C#Cc3ccc(OC)cc3)cc12 in the same way.
4.25

----------
composite z-score for assorted molecules
- assayed-target: Focal adhesion kinase 1 (Homo sapiens) (UniProt Q05397)
- Sequence (Q05397 whole entry, looked up): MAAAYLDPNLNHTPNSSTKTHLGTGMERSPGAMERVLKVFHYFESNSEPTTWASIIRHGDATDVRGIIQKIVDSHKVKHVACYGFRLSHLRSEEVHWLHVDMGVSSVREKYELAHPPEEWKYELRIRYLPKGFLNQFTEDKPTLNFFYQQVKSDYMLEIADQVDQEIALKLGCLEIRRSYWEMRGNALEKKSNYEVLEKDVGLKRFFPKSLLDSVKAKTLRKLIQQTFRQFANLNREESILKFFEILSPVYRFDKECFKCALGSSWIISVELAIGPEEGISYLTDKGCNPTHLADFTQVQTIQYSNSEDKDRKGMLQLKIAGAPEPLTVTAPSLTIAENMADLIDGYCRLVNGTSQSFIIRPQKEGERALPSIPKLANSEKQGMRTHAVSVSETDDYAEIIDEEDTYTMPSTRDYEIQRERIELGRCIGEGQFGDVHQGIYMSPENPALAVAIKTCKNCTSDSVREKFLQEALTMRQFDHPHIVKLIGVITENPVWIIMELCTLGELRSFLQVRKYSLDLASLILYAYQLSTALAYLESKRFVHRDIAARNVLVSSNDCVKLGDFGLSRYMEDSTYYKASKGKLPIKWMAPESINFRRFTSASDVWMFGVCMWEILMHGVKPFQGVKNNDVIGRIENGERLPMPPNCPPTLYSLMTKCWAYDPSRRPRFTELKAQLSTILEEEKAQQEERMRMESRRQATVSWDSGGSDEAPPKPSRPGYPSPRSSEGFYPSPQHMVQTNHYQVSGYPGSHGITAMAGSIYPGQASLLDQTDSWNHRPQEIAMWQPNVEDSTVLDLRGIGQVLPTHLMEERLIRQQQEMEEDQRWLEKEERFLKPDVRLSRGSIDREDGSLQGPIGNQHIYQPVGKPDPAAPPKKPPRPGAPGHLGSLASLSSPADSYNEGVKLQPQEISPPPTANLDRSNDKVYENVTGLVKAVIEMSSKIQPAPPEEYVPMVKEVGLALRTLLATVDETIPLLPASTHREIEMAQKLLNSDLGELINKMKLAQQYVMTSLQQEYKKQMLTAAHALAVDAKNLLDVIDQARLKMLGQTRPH
- assay-comment: small-molecule microarray binders of FAK, primary screen, biochemical, 635/667 nm fluorescence, BSA, DTT (AID 1130);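 also: composite of spot emission at 667 nm and signal to noise over triplicate slides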
- conditions-used: PTK2 binding, 635 nm fluorescence, higher = more signal
// no unit string in output, number only

Find composite z-score (Focal adhesion kinase 1 (Homo sapiens) (UniProt Q05397)) for the entry C[C@]1(C(=O)O)c2ccccc2C(=O)N(Cc2ccc(OC(F)(F)F)cc2)[C@H]1c1ccc(CO)cc1
0.609

Let us now turn to COCC1=C2[C@@H](CCc3ccccc3)OB(O)C[C@@H]2[C@@H]2C(=O)N(C)C(=O)[C@@H]2C1
0.164

Next: CCCNC(=O)[C@@]1(Sc2ccc(C)cc2)CC(=O)N(C2CCCCC2)[C@@H]1c1ccc(CO)cc1I
0.996

Next:
Recorded composite z-score for COCCCNC(=O)[C@@]1(c2ccc([N+](=O)[O-])cc2)CC(=O)N(CC23CC4CC(CC(C4)C2)C3)[C@@H]1c1ccc(CO)cc1I with Focal adhesion kinase 1 (Homo sapiens) (UniProt Q05397), please?
0.0865

Next molecule: CO[C@H]1O[C@H](CO)[C@@H](OC(=O)Nc2cccc(F)c2)[C@H](OC(=O)Nc2ccccc2-c2ccccc2)[C@H]1OC(=O)Nc1ccccc1-c1ccccc1
0.55

What do you get for COc1cc(NN2C(C(O)c3ccc(I)cc3)C=CC3C(=O)N(c4ccccc4)C(=O)C32)cc(OC)c1OC (configuration not stated) ?
0.522

Can you check CCN(CC)c1ccc(N2CC=CC34O[C@@H]5C=CCCOC(=O)C5[C@H]3C(=O)N(CCO)[C@@H]4C2=O)cc1 (some centres not stated) next?
-0.491

----------
- assay-comment: basal S. cerevisiae growth modulation, no modifier, primary screen, OD600, strain BY4716, 24 h, basal condition (AID 1173)
- conditions-used: OD600, 24 h, higher = more signal, called active from +8 up or from −8 down
Tick label 1 if z-score is -1 or greater. Tick label 0 if z-score is less than -1.

Here are 5 compounds together with their reported answers.
# bool: z-score of COc1cc(CO)cc(I)c1O[C@H]1C=C(C(=O)NCCO)C[C@@H](NCC2CCCCC2)[C@@H]1O >= -1
label 1

Repeat for the following compound: CN(C)C(=O)[C@]1(CCS(=O)(=O)c2ccccc2)N=C(c2ccc(OCCCO)cc2)O[C@@H]1c1ccccc1
label 1

Again, but for COCCOC(=O)N1C(=O)[C@@]2(c3cc(C#Cc4ccc(OC)cc4)ccc31)[C@H](C(=O)NC[C@H](O)c1ccccc1)[C@H]1C(=O)O[C@H](c3ccccc3)[C@H](c3ccccc3)N1[C@@H]2c1ccc(OCCO)cc1
label 1

One more compound: C=CCNC(=O)[C@@H]1[C@H]2C(=O)O[C@H](c3ccccc3)[C@H](c3ccccc3)N2[C@H](c2ccc(O)cc2)[C@@]12C(=O)N(C(=O)OCCOC)c1ccc(C#CCCO)cc12
label 1

What about this compound? C=CCC(OC(C)=O)[C@@H]1[C@@H](N(Cc2cc3ccccc3o2)C(=O)c2ccc(-c3ccccc3)cc2)c2cc(OCCCO)ccc2N1C(=O)Cc1ccc(OC)cc1 (stereo not given in full)
label 1

Next:
hey, is z-score for this one >= -1? Cc1ccc(N2C(=O)c3ccccc3[C@](C)(C(=O)NCc3ccccc3)[C@@H]2c2ccc(CO)cc2)nc1
label 1

Could you do the same for C=C(C(=O)CC[C@@H](OC(=O)c1ccccc1-c1ccccc1C(=O)O)c1ccccc1OCCO)C(C)C , please?
label 0

Entry COCCCNC(=O)[C@@]1(Sc2ccc(C)cc2)CC(=O)N(C(C)C)[C@@H]1c1ccc(CO)cc1I please
label 0

Next compound: COCCCNC(=O)[C@@]1(Sc2ccc(C)cc2)CC(=O)N(Cc2ccccc2Cl)[C@@H]1c1ccc(CO)cc1I
label 0

Cool, now Cc1ccc(F)cc1S(=O)(=O)N[C@@H]1CCN(Cc2cccc3[nH]ccc23)C1
label 0
